test description: folding enthalpy; higher = less favourable; fluorescence melt of hairpins on a sequencing array, two-state fit
condition info: sodium 0.088 M
outcome measure: folding enthalpy (kcal/mol)
Return type: number; implicit unit kcal/mol.

Check out these entries, answers already filled in.
{"columns": ["sequence record", "folding enthalpy / kcal/mol"],
 "data": [
  ["GCGATCCGTCGC ((((....))))", -24.6],
  ["GATCCCTCTGGGATC ((((((...))))))", -31.3],
  ["GATCGCTCCCGCGATC ((((((....))))))", -34.3],
  ["GTACAAGGAAACCTGTAC (((((.(....).)))))", -26.1],
  ["GCTCGGCGAAAGCAGGGC ((.(.((....)).).))", -14]
]}

Exercise: Return reported folding enthalpy; argument: GCGATCCCTCGC ((((....))))
Solution: -24.1

Exercise: Return reported folding enthalpy; argument: GCTAGAGGAAACTTTAGC ((((.((....)).))))
Solution: -20.8

###

test description: folding enthalpy; higher = less favourable; fluorescence melt of hairpins on a sequencing array, two-state fit
condition info: sodium 0.088 M
outcome measure: folding enthalpy (kcal/mol)
Return type: number; implicit unit kcal/mol.

{"columns": ["sequence record", "result value"],
 "data": [
  ["GGGACTCCGAAAGGACCC (((..(((....))))))", -16],
  ["GCTTTAGCGAAAGCTAGC (((..(((....))))))", -8.44],
  ["GAGTTAGCGAAAGCTCTC (((..(((....))))))", -11.5],
  ["GAATGGCGAAAGCCCTTC (((.(((....))).)))", -20],
  ["GCAGTGGGAAACCATTGC (((.(((....))).)))", -25.6]
]}

From here, focus on the item given below.
Exercise: Return reported folding enthalpy; argument: GATGGGCGAAAGCCGATC (((.(((....))).)))
Solution: -18.8

###

test description: folding enthalpy; higher = less favourable; fluorescence melt of hairpins on a sequencing array, two-state fit
condition info: sodium 0.088 M
outcome measure: folding enthalpy
# do not omit the unit; it follows the number

Check out these entries, answers already filled in.
{"columns": ["sequence record", "folding enthalpy"],
 "data": [
  ["GTTCCCGGAAACGAGAAC ((((.((....)).))))", "-30.2 kcal/mol"],
  ["GGCTAAACGAAAGTTGCC (((..(((....))))))", "-22.5 kcal/mol"],
  ["GGTACGCCGAAAGGCACC (((..(((....))))))", "-8.21 kcal/mol"]
]}

Exercise: Return reported folding enthalpy; argument: GATCGGTCACCGATC ((((((...))))))
Solution: -36.2 kcal/mol

Exercise: Return reported folding enthalpy; argument: GATCATGGGAATGATC ((((((....))))))
Solution: -36.8 kcal/mol

Exercise: Return reported folding enthalpy; argument: CGATGGAAACATCG (((((....)))))
Solution: -23.9 kcal/mol

###

test description: folding enthalpy; higher = less favourable; fluorescence melt of hairpins on a sequencing array, two-state fit
condition info: sodium 0.088 M
Please note: yes applies when folding enthalpy is -30 kcal/mol or greater, and no applies otherwise.

{"columns": ["sequence record", "group label"],
 "data": [
  ["GGATCTCGAAAGAGTTCC (((.(((....))).)))", "yes"],
  ["GATCCCGACTGGGATC ((((((....))))))", "no"],
  ["GATCGCGAGGGCGATC ((((((....))))))", "no"],
  ["AACCGGAAACGGTT (((((....)))))", "yes"]
]}

Next item in the queue.
Exercise: folding enthalpy >= -30 kcal/mol for GGAAAGCCGAAAGGCTCC (((..(((....)))))) ?
Solution: yes
